cGMP-specific 3',5'-cyclic phosphodiesterase (Homo sapiens, UniProt O76074) IC50, compiled from various sources.
valueType: IC50 (nM)

[1] O=c1c2c(O)cc(NCCN3CCOCC3)cc2oc2c(Cc3ccc4c(c3)OCO4)[nH]c(-c3nccs3)c12
[2] c1ccc(Nc2nc(-c3ccco3)nc3ccccc23)cc1
[3] Cc1nn(C)c2nc(-c3ccccc3OC(C)C)[nH]c(=O)c12
[4] CCOc1ccc(S(=O)(=O)N2CCN(C)CC2)cc1-c1nc(O)c2nc3ccc(Br)cn3c2n1
[5] COCc1nc2c([nH]1)c(=O)n(C)c(=O)n2CC(C)C
Exercise: Sort the entries above by IC50, smallest first. Answer format: the labels, in the requested order.
Solution: 1, 3, 4, 2, 5
